Value source: the supplement of paper PMC10065799

# assaySystem: FGFR3 (UniProt P22607)
# Sequence (P22607 whole entry, looked up): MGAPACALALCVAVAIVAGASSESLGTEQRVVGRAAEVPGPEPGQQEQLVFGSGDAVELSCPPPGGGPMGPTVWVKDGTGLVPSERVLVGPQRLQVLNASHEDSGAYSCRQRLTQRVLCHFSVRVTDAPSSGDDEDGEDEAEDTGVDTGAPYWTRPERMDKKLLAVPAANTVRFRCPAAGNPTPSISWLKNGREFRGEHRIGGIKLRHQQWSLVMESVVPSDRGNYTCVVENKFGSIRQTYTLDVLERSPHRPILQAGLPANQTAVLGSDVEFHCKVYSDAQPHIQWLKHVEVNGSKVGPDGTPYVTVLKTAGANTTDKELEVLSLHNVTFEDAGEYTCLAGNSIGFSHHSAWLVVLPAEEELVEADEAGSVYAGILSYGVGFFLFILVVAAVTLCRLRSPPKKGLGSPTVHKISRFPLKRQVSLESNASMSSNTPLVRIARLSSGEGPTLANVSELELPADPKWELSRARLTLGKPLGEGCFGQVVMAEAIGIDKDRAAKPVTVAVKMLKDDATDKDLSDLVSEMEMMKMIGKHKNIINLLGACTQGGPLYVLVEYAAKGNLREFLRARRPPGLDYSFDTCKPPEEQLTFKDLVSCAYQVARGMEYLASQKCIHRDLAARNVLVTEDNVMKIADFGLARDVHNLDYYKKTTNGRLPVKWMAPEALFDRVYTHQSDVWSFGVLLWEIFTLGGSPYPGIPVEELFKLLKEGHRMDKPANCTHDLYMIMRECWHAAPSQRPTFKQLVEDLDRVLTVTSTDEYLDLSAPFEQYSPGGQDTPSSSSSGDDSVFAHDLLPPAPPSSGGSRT
# method: phosphorylation enrichment, bacterial display (enrichment ratio); higher = better substrate or ligand; peptides without Tyr show the background
phosphorylation enrichment below 0.8 gives not met; phosphorylation enrichment at or above it gives met.

{"chain": "PVPKTYDMLKA [PKP2_Y108]", "category": "not met"}
{"chain": "GYCSWYRGWAP [TIMP3_Y195]", "category": "met"}
{"chain": "VREIRCQGGNR [VWF_Y1570_Y1570C]", "category": "not met"}
{"chain": "GESLTYVSTTF [C1orf162_Y120_A121V]", "category": "not met"}
{"chain": "MNKNAYHNVTT [ST3GAL6_Y306_A311T]", "category": "not met"}
{"chain": "ELCSEYHKSRK [SPINK5_Y440_R441H]", "category": "not met"}
{"chain": "NNDLCYWVPEL [IARS1_Y434]", "category": "met"}
{"chain": "SETDDYAEIID [PTK2_Y397]", "category": "met"}
{"chain": "HSRTRYERNIE [F2_Y434]", "category": "not met"}
{"chain": "EASEQYLTKAS [NRCAM_Y739]", "category": "not met"}

Request: Evaluate PSRKDYETFQS [CTNND2_Y1154_P1159S_YF] : phosphorylation enrichment at minimum 0.8?
Response: not met

Request: Evaluate IKSSIYDNRNE [ARAP2_Y380_K384N] : phosphorylation enrichment at minimum 0.8?
Response: not met

Request: Evaluate EPYEVYRIVPE [IRF8_Y110_K108E] : phosphorylation enrichment at minimum 0.8?
Response: met

Request: Evaluate YSTPPYLLEAA [BRIP1_Y921_S919P] : phosphorylation enrichment at minimum 0.8?
Response: met

Request: Evaluate NELTFYCCKKD [CD59_Y87_YF] : phosphorylation enrichment at minimum 0.8?
Response: not met

====

# Tested on: AncSZ
# method: phosphorylation enrichment, bacterial display (enrichment ratio); higher = better substrate or ligand; peptides without Tyr show the background
endpoint: phosphorylation enrichment
Simply state the number, no unit and no words.

Here is how some sequences turned out for phosphorylation enrichment.
{"chain": "FPMLNYKDIRK [CFAP221_Y798]", "assaySystem": "AncSZ", "phosphorylation enrichment": 0.49}
{"chain": "GYQPEYGQPAG [SYP_Y278_D277E]", "assaySystem": "AncSZ", "phosphorylation enrichment": 0.662}
{"chain": "GFGGGYGGVLT [KRT19_Y65_A60G_YF]", "assaySystem": "AncSZ", "phosphorylation enrichment": 0.626}

So for ERTIEYLEEVV [HADHA_Y239_A244V] , the logged phosphorylation enrichment turned out to be 1.18

So for VSGIPYSQPKQ [NEU1_Y251_G252S] , the logged phosphorylation enrichment turned out to be 0.467

So for FSMGCYEFSLG [HMGCL_Y198_I200F_YF] , the logged phosphorylation enrichment turned out to be 2.26

So for MYVKSYTIHYS [F5_Y2153] , the logged phosphorylation enrichment turned out to be 1.03

So for HLEKKYVRRDS [CSF1R_Y708] , the logged phosphorylation enrichment turned out to be 2.92

So for CTTIHYNYMCN [TP53_Y234] , the logged phosphorylation enrichment turned out to be 0.853

So for GVRLYYRVRES [RB1_Y454_M457R] , the logged phosphorylation enrichment turned out to be 1.54

So for ATFRGYDSDNP [MMUT_Y146_H143Y_YF] , the logged phosphorylation enrichment turned out to be 0.904

So for LTAEVYFPSIK [C5orf64_Y60] , the logged phosphorylation enrichment turned out to be 1.78

So for AFGEVYEGQES [ALK_Y1131_V1135E] , the logged phosphorylation enrichment turned out to be 1.32

So for SLAARYYNWVS [FLT4_Y1230] , the logged phosphorylation enrichment turned out to be 1.06

====

# System: c-Src
# method: phosphorylation enrichment, bacterial display (enrichment ratio); higher = better substrate or ligand; peptides without Tyr show the background
Group membership follows phosphorylation enrichment per the scheme low value: < 0.5; medium value: ≥ 0.5 and < 0.6; high value: ≥ 0.6

These recorded examples may help you get a feel for the data.
{"chain": "IKGNMYYENSY [EGFR_Y112_R108K]", "category": "medium value"}
{"chain": "HCFAAYFQQGD [GPI_Y351_R347C]", "category": "high value"}
{"chain": "QITQVYGFYHE [PPP2CA_Y127_D131H]", "category": "high value"}
{"chain": "FSPGSNERETF [NF1_Y2192_Y2192N]", "category": "low value"}
{"chain": "FSLPAYMDRRD [COX4I1_Y38]", "category": "low value"}

Request: For CTTIHSNFMCN [TP53_Y234_Y234S_YF] , which phosphorylation enrichment bin applies?
Response: low value

Request: For PSELFYSKISP [SMG1_Y2254_G2258S_YF] , which phosphorylation enrichment bin applies?
Response: high value

Request: For PVQAVYQKVVA [HBB_Y131_A130V] , which phosphorylation enrichment bin applies?
Response: high value

Request: For FVTCTYSPALN [TP53_Y126_S121F] , which phosphorylation enrichment bin applies?
Response: medium value

Request: For ASTDFNKRGDF [PDHA1_Y243_Y243N_YF] , which phosphorylation enrichment bin applies?
Response: low value

Request: For GDPVQYNRTTD [MLPH_Y454] , which phosphorylation enrichment bin applies?
Response: low value

Request: For FSDPSYVKQME [CDC5L_Y464_YF] , which phosphorylation enrichment bin applies?
Response: low value

====

Documented phosphorylation enrichment across a set of sequences
# Tested on: c-Abl (mouse)
# method: phosphorylation enrichment, bacterial display (enrichment ratio); higher = better substrate or ligand; peptides without Tyr show the background
Simply state the number, no unit and no words.

Here is how some sequences turned out for phosphorylation enrichment.
{"chain": "PMQMPYDSRWE [PDGFRA_Y582_L580M]", "assaySystem": "c-Abl (mouse)", "phosphorylation enrichment": 1.96}
{"chain": "PSRKDYETFQS [CTNND2_Y1154_P1159S_YF]", "assaySystem": "c-Abl (mouse)", "phosphorylation enrichment": 1.94}
{"chain": "VPLATYMRIYK [RPL21_Y30]", "assaySystem": "c-Abl (mouse)", "phosphorylation enrichment": 0.591}
{"chain": "FPDFVYKCIKA [DPYSL2_Y479_R481C]", "assaySystem": "c-Abl (mouse)", "phosphorylation enrichment": 0.95}
{"chain": "HFGCVYRGTLL [MET_Y1093_H1094R]", "assaySystem": "c-Abl (mouse)", "phosphorylation enrichment": 1.28}

Record ANFTEYVATRW [CDKL5_Y171_YF] ; system c-Abl (mouse); phosphorylation enrichment = 0.682

Record MPLTEYLKQIK [CNGB3_Y200_R203Q] ; system c-Abl (mouse); phosphorylation enrichment = 0.844

====

Documented SH2 binding enrichment across a set of sequences
# assaySystem: Grb2 SH2 (UniProt P62993)
# Sequence (P62993 whole entry, looked up): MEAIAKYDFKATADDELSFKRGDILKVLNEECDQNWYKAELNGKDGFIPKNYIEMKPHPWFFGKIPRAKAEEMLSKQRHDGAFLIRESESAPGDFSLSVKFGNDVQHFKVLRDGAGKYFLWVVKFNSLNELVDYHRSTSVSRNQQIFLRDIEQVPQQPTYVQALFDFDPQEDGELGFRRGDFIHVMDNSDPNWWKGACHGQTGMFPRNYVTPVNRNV
# method: SH2 binding enrichment of the phosphorylated peptide, bacterial display (enrichment ratio); higher = better substrate or ligand; peptides without Tyr show the background
Simply state the number, no unit and no words.

{"chain": "PVQAVYQKVVA [HBB_Y131_A130V]", "SH2 binding enrichment": 0.913}
{"chain": "AEYGLYAAMVR [VSX2_Y222_G223A]", "SH2 binding enrichment": 0.82}
{"chain": "ATYRGYDSDNP [MMUT_Y146_H143Y]", "SH2 binding enrichment": 0.862}
{"chain": "KHGGNYVPAPE [OSCP1_Y237_K242E]", "SH2 binding enrichment": 0.619}
{"chain": "EAEPFYRSLRD [NPHS1_Y1139_YF]", "SH2 binding enrichment": 1.19}
{"chain": "AFGEVYEGQVS [ALK_Y1131]", "SH2 binding enrichment": 0.914}
{"chain": "RLQEGYDHSYY [ESD_Y258]", "SH2 binding enrichment": 0.939}
{"chain": "YSNKLHYQLEQ [PDPR_Y109_Y109H]", "SH2 binding enrichment": 0.98}
{"chain": "TKFRNYLIPNG [CYP2C8_Y379_K383N]", "SH2 binding enrichment": 0.946}
{"chain": "ETRWKYHFEVV [GCNT3_Y267]", "SH2 binding enrichment": 0.712}

Record GIADDYDKKKL [EIF1_Y54] ; system Grb2 SH2 (UniProt P62993); SH2 binding enrichment = 0.931

Record HPYNSYTYPRL [PAK5_Y316_S312P] ; system Grb2 SH2 (UniProt P62993); SH2 binding enrichment = 0.813

Record IGSHAYGDQFR [IDH1_Y135_R132S_YF] ; system Grb2 SH2 (UniProt P62993); SH2 binding enrichment = 0.892

Record AGRTGYDNREI [BCL2_Y9] ; system Grb2 SH2 (UniProt P62993); SH2 binding enrichment = 0.779
